Assay: in vitro
Details: human
Parameter: CC50 at 48 h. Scope: all listed entries.

{"columns": ["COMPOUND", "CC50 at 48 h"],
 "data": [
  ["O=C(CSc1nnnn1-c1ccccc1)NCc1ccccc1 [Compound 164]", "> 150 µM"]
]}

Shift focus to the following entry.
The compound identified as CCc1ccc(NC(=O)COC(=O)c2ccc3ccccc3n2)cc1 [Compound 157] registered its CC50 at 48 h at > 400 µM

* * *

Tested on: A549 cells
Conditions: human, 48 h
QUANTITY_KIND: CC50 (µM)
Give just the number in µM; leave the unit off.

// assay A549 cells, entry O=C(CSc1nnnn1-c1ccccc1)NCc1ccccc1 , CC50 value = 169

Ref: paper PMC10341698
